system_tested: PU.1 (IVT) (UniProt P17947 1-270)
test_description: protein-binding microarray (PBM); 20 mM HEPES pH 7.9, 100 mM NaCl, 1 mM DTT, 0.2 mg/mL BSA, 0.02% Triton X-100, 2% milk, 0.4 mg/mL salmon testes DNA; 1 h; temperature not stated; high values mean tight binding
assay_context: dsDNA, one strand shown
The full ranking holds about 3,700 sequences; the median of “z-score” is about 4, and the highest 2% start at about 8.4. What follows is part of a selection rich in the highest values, with near analogues and random picks from the rest.
assay_endpoint: binding signal (z-score)
One number for each entry, in z-score.

{"columns": ["macromolecule_sequence", "unit", "reported_measurement"],
 "data": [
  ["GCCTAGCACGATTTGAGGAAATGAAACTTGTGCTAGGTCTTGATTCGCTTGACGCTGCTG", "z-score", 3.79],
  ["GCCTAGCACGAAAGAGGGAAGTGAAAGTCGTGCTAGGTCTTGATTCGCTTGACGCTGCTG", "z-score", 5.25],
  ["GCCTAGCACGCTTTAGGGAACTACTGTGGGTGCTAGGTCTTGATTCGCTTGACGCTGCTG", "z-score", 3.58],
  ["GCCTAGCACAAAAGAGGGAAGTGACATTCGTGCTAGGTCTTGATTCGCTTGACGCTGCTG", "z-score", 5.89],
  ["GCCTAGCACGAAAGGGGGAAGTGACTAAGGTGCTAGGTCTTGATTCGCTTGACGCTGCTG", "z-score", 5.51],
  ["GCCTAGCACAAAAAAAGGATATGAAAGTAGTGCTAGGTCTTGATTCGCTTGACGCTGCTG", "z-score", 0.953],
  ["GCCTAGCACTGGGAGAGGAAGTGATGAGCGTGCTAGGTCTTGATTCGCTTGACGCTGCTG", "z-score", 4.01],
  ["GCCTAGCACGCAGGGAGGAAGTGGGGAAGGTGCTAGGTCTTGATTCGCTTGACGCTGCTG", "z-score", 3.42]
]}

Request: Form field: reported binding signal of `GCCTAGCACTACCCTTTAAAAATAGTTCAGTGCTAGGTCTTGATTCGCTTGACGCTGCTG`
Result: 0.827

====

system_tested: PU.1 (IVT) (UniProt P17947 1-270)
test_description: protein-binding microarray (PBM); 20 mM HEPES pH 7.9, 100 mM NaCl, 1 mM DTT, 0.2 mg/mL BSA, 0.02% Triton X-100, 2% milk, 0.4 mg/mL salmon testes DNA; 1 h; temperature not stated; high values mean tight binding
assay_context: dsDNA, one strand shown
The full ranking holds about 3,700 sequences; the median of “z-score” is about 4, and the highest 2% start at about 8.4. This excerpt belongs to a sample that is enriched for the highest values.
Label Criterion met when binding signal is at or above 8 z-score; otherwise label Criterion not met.

{"columns": ["macromolecule_sequence", "assigned_class"],
 "data": [
  ["GCCTAGCACGAAAAGAGGAAGTCAAAATAGTGCTAGGTCTTGATTCGCTTGACGCTGCTG", "Criterion met"],
  ["GCCTAGCACAAAAAAAGGAACGGGCTAGAGTGCTAGGTCTTGATTCGCTTGACGCTGCTG", "Criterion not met"]
]}

Request: Check the entry `GCCTAGCACAGAAAAAGGAAGTGGAATTTGTGCTAGGTCTTGATTCGCTTGACGCTGCTG` : does binding signal equal or exceed 8 z-score?
Result: Criterion not met

Request: Check the entry `GCCTAGCACAAAAAAAGGAAATGAAAGTAGTGCTAGGTCTTGATTCGCTTGACGCTGCTG` : does binding signal equal or exceed 8 z-score?
Result: Criterion not met

Request: Check the entry `GCCTAGCACTGAGAGGAGAAGTGAAACCCGTGCTAGGTCTTGATTCGCTTGACGCTGCTG` : does binding signal equal or exceed 8 z-score?
Result: Criterion not met

Request: Check the entry `GCCTAGCACAAAAAGAGGAAGGGAAACTAGTGCTAGGTCTTGATTCGCTTGACGCTGCTG` : does binding signal equal or exceed 8 z-score?
Result: Criterion not met

Request: Check the entry `GCCTAGCACAGAAACAGGAACTGAGGCCAGTGCTAGGTCTTGATTCGCTTGACGCTGCTG` : does binding signal equal or exceed 8 z-score?
Result: Criterion not met

Request: Check the entry `GCCTAGCACAAAAAGAGGAAGTCAAACTAGTGCTAGGTCTTGATTCGCTTGACGCTGCTG` : does binding signal equal or exceed 8 z-score?
Result: Criterion met

Request: Check the entry `GCCTAGCACAAAAAGAGGAACTGAATGTCGTGCTAGGTCTTGATTCGCTTGACGCTGCTG` : does binding signal equal or exceed 8 z-score?
Result: Criterion not met
